- system_tested: Adenosine receptor A2b (Homo sapiens, UniProt P29275)
- Sequence (P29275 whole entry): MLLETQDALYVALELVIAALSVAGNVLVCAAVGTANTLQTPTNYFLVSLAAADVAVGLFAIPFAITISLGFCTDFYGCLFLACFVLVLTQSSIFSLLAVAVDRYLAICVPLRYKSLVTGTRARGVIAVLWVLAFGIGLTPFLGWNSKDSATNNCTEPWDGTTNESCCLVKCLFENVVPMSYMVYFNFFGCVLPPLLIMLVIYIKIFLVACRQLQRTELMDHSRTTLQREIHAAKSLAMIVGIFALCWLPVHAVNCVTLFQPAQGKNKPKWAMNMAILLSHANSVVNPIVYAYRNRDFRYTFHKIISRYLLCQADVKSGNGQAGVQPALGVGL
- measurement_description: Agonist activity at human adenosine A2B receptor expressed in CHO cell membranes assessed as induction of cAMP accumulation by AlphaScreen assay
pEC50: −log10 of the molar value.
Label 1 (yes) when pEC50 is at or above 7; anything below gets 0 (no).

| smiles_input | system_tested | label_value |
| --- | --- | --- |
| N#Cc1c(N)nc(SCc2ncn[nH]2)c(C#N)c1-c1ccc(OCC2CC2)cc1 | Adenosine receptor A2b (Homo sapiens, UniProt P29275) | 1 (yes) |
| N#Cc1c(N)nc(SCc2cccc(C(N)=O)c2)c(C#N)c1-c1ccc(OCC2CC2)cc1 | Adenosine receptor A2b (Homo sapiens, UniProt P29275) | 1 (yes) |
| N#Cc1c(N)nc(SCC(=O)NCO)c(C#N)c1-c1ccc(OCC2CC2)cc1 | Adenosine receptor A2b (Homo sapiens, UniProt P29275) | 0 (no) |
| N#Cc1c(N)nc(SCC(N)=O)c(C#N)c1-c1ccc(OCC2CC2)cc1 | Adenosine receptor A2b (Homo sapiens, UniProt P29275) | 1 (yes) |
| CCOc1ccc(-c2c(C#N)c(N)nc(SCc3ncc[nH]3)c2C#N)cc1 | Adenosine receptor A2b (Homo sapiens, UniProt P29275) | 1 (yes) |
| CCOc1ccc(-c2c(C#N)c(N)nc(SCC(N)=O)c2C#N)cc1 | Adenosine receptor A2b (Homo sapiens, UniProt P29275) | 1 (yes) |
| COC(=O)c1cccc(CSc2nc(N)c(C#N)c(-c3ccc(OCC4CC4)cc3)c2C#N)c1 | Adenosine receptor A2b (Homo sapiens, UniProt P29275) | 0 (no) |
| CCOc1ccc(-c2c(C#N)c(N)nc(SCC(=O)NC)c2C#N)cc1 | Adenosine receptor A2b (Homo sapiens, UniProt P29275) | 0 (no) |
| N#Cc1c(N)nc(SCc2ncc[nH]2)c(C#N)c1-c1ccc(OCC2CC2)cc1 | Adenosine receptor A2b (Homo sapiens, UniProt P29275) | 1 (yes) |
| CCOc1ccc(-c2c(C#N)c(N)nc(SCc3ccn[nH]3)c2C#N)cc1 | Adenosine receptor A2b (Homo sapiens, UniProt P29275) | 0 (no) |

* * *

- system_tested: Adenosine receptor A3 (Homo sapiens)
- measurement_description: Displacement of [125I]-ABMECA from human adenosine A3 receptor expressed in CHO cell membranes at 1 uM after 120 mins by scintillation counting analysis

| smiles_input | inhibition / % |
| --- | --- |
| N#Cc1c(N)nc(SCC(N)=O)c(C#N)c1-c1ccc(OCC2CCC2)cc1 | 1 |
| N#Cc1c(N)nc(SCc2cccc(C(N)=O)c2)c(C#N)c1-c1ccc(OCC2CC2)cc1 | 1 |
| N#Cc1c(N)nc(SCc2cccnc2)c(C#N)c1-c1ccc(OCC2CC2)cc1 | 19 |
| N#Cc1c(N)nc(SCC(=O)NCO)c(C#N)c1-c1ccc(OCC2CC2)cc1 | 8 |
| N#Cc1c(N)nc(SCc2nnn[nH]2)c(C#N)c1-c1ccc(OCC2CC2)cc1 | 1 |
| C=CCOc1ccc(-c2c(C#N)c(N)nc(SCc3ccn[nH]3)c2C#N)cc1 | 13 |
| CCOc1ccc(-c2c(C#N)c(N)nc(SCc3ccn[nH]3)c2C#N)cc1 | 18 |
| N#Cc1c(N)nc2sc(C(N)=O)c(N)c2c1-c1ccc(OCC2CC2)cc1 | 13 |
| COC(=O)c1cccc(CSc2nc(N)c(C#N)c(-c3ccc(OCC4CC4)cc3)c2C#N)c1 | 4 |
| COC(=O)CSc1nc(N)c(C#N)c(-c2ccc(OCC3CC3)cc2)c1C#N | 1 |
| N#Cc1c(N)nc(SCc2nc3ccccc3[nH]2)c(C#N)c1-c1ccc(OCC2CC2)cc1 | 1 |
| N#Cc1c(N)nc(SCC2=NCCN2)c(C#N)c1-c1ccc(OCC2CC2)cc1 | 6 |
| N#Cc1c(N)nc(SCC(N)=O)c(C#N)c1-c1ccc(OCC2CC2)cc1 | 8 |

meta.source: ChEMBL document CHEMBL4196073
